Tested on: Candida albicans
Experiment: Minimum inhibitory concentration evaluated against Candida albicans
Format: functional
quantity_name: MIC

// MIC value for CCc1cc2c3c(N)nc(N)nc3ccc2n1C(C)(C)C : > 0.1 µg/mL

###

Below: a set of entries, each annotated with reported MIC.
Tested on: Candida albicans
Test: Minimum inhibitory concentration evaluated against Candida albicans
Assay type: functional

# annotated cases, reported MIC shown
compound	value_measured
CCCc1cc2c3c(N)nc(N)nc3ccc2n1C(CC)CC	> 0.1 µg/mL
CCCCc1cc2c3c(N)nc(N)nc3ccc2n1C(C)(C)C	> 0.1 µg/mL
COc1ccc(OC)c(Cc2cnc3nc(N)nc(N)c3c2C)c1 [PIRITREXIM]	> 10 µg/mL
CCC(CC)n1c(C(C)C)cc2c3c(N)nc(N)nc3ccc21	> 0.1 µg/mL

For the next question, use this compound.
Note to self: MIC of COc1cc(NCc2ccc3nc(N)nc(N)c3c2C)cc(OC)c1OC [TRIMETREXATE] with Candida albicans was > 50 µg/mL
